target: GHSR1a (Homo sapiens, UniProt Q92847); experiment: Calcium FLIPR assay, GHSR-1a agonism; conditions: HEK293/GHSR1a cells
Sequence (Q92847 whole entry): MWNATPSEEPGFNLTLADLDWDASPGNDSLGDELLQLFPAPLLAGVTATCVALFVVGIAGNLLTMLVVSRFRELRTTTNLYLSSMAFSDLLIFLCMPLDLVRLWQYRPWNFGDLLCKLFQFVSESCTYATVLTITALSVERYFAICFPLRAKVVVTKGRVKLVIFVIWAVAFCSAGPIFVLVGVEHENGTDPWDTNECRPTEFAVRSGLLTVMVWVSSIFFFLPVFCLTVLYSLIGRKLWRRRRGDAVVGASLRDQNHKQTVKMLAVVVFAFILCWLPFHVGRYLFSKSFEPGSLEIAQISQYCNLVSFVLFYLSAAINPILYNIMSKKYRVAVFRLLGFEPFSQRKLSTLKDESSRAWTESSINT
experimental.readout: EC50 (nM)

CC(NC(=O)N(O)C1CCN(C)CC1)c1ccc(-c2cccs2)c(Cl)c1Cl (centres unmarked) [Compound H0627] : 1

[1] CC(NC(=O)N(C)C1CCN(C)CC1)c1ccc(-c2cscn2)c(Cl)c1Cl (centres unmarked) [Compound H0568]
[2] CC(NC(=O)N(C)C1CCN(C)CC1)c1ccc(-c2cccs2)c2ccccc12 (centres unmarked) [Compound H0575]
[3] CC(NC(=O)N(C)C1CCN(C)CC1)c1ccc(-c2cnn(C3CC3)c2)c(Cl)c1Cl (centres unmarked) [Compound H0842]
[4] CC(=O)c1ccsc1-c1ccc(C(C)NC(=O)N(C)C2CCN(C)CC2)c(Cl)c1Cl (centres unmarked) [Compound H0688]
Let's sort these by EC50, smallest first. Go ahead? Answer by writing out the labels in the requested order.
1, 4, 2, 3
(1: 4 nM, 4: 12 nM, 2: 28 nM, 3: 67 nM)

---

biological target: GHSR1a (Homo sapiens); test: Calcium FLIPR assay, GHSR-1a antagonism (reduction of ghrelin response); conditions: HEK293/GHSR1a cells, ghrelin 10 nM
experimental.readout: IC50 (nM)

Cc1noc(-c2ccc(C(C)NC(=O)N(C)C3CCN(C)CC3)c(Cl)c2Cl)n1 (stereo not shown) [Compound H0596] : 9
CC(NC(=O)N(C)C1CCN(C)CC1)c1ccc(-c2ccc(F)nc2)c(Cl)c1Cl (stereo not shown) [Compound H0618] : 40

[1] CC(NC(=O)N(C)C1CCN(C)CC1)c1ccc(-c2cnc(-n3ccnc3)nc2)c(Cl)c1Cl (stereo not shown) [Compound H0803]
[2] CC(NC(=O)N(C)C1CCN(C)CC1C)c1ccc(-c2cccnc2)c(Cl)c1Cl (stereo not shown) [Compound H0527]
Of 1 and 2 , whose reported IC50 is the larger number? Your answer should be the label of the entry you select.
1

[I] C#Cc1ccc(C(C)NC(=O)N(C)C2CCN(C)CC2)c(Cl)c1Cl (single isomer, unassigned) [Compound H0678]
[II] CC(NC(=O)N(C)C1CCN(C)CC1)c1ccc(-c2ccc(C(=O)N(C)C)s2)c(Cl)c1Cl (stereo not shown) [Compound H0726]
[III] CN1CCC(N(C)C(=O)NC(C#N)c2ccc(-c3ccsc3)c(Cl)c2Cl)CC1 (stereo not shown) [Compound H0644]
Let's sort these by IC50, smallest first. Go ahead? Answer by writing out the labels in the requested order.
III, I, II
(III: 6 nM, I: 55 nM, II: 456 nM)

---

molecular target: UniProtKB Q92847; assay: Calcium FLIPR assay, GHSR-1a agonism; conditions: HEK293/GHSR1a cells
experimental.readout: EC50 (nM)

CC(NC(=O)N(C)C1CCN(C)CC1)c1ccc(-c2cnn(CCO)c2)c(Cl)c1Cl (centres unmarked) [Compound H0693] : 100
CC(NC(=O)N(C)C1CCN(C)CC1)c1ccc(-c2ccsc2)c2ccccc12 (centres unmarked) [Compound H0574] : 81

[I] CNc1ncc(-c2ccc(C(C)NC(=O)N(C)C3CCN(C)CC3)c(Cl)c2Cl)cn1 (centres unmarked) [Compound H0806]
[II] CC(NC(=O)N(C)C1CCN(C)CC1)c1ccc(-c2cnc[nH]2)c2ccccc12 (centres unmarked) [Compound H0599]
[III] CC(NC(=O)N(C)C1CCN(C)CC1)c1ccc(C#N)c2ccccc12 (centres unmarked) [Compound H0790]
Let's sort these by EC50, smallest first. Go ahead? Answer by writing out the labels in the requested order.
I, III, II

[1] CC(NC(=O)N(C)C1CCN(C)CC1)c1ccc(-c2cnn(C)c2)c(Cl)c1Cl (centres unmarked) [Compound H0501]
[2] C#Cc1cncc(-c2ccc(C(C)NC(=O)N(C)C3CCN(C)CC3)c(Cl)c2Cl)c1 (centres unmarked) [Compound H0710]
Of 1 and 2 , whose reported EC50 is the larger number? Your answer should be the label of the entry you select.
2
(2: 395 nM, 1: 22 nM)

[P] CC(NC(=O)N(C)C1CCN(C)CC1)c1ccc(-c2cnc(C3CC3)nc2)c(Cl)c1Cl (centres unmarked) [Compound H0854]
[Q] CC(NC(=O)N(C)C1CCN(C)CC1)c1ccc(-c2cncc(CCl)n2)c(Cl)c1Cl (centres unmarked) [Compound H0786]
[R] C=Cc1ccc(C(C)NC(=O)N(C)C2CCN(C)CC2)c(Cl)c1Cl (centres unmarked) [Compound H0626]
# rank_down: sort by EC50, max first Answer by writing out the labels in the requested order.
Q, P, R

[1] CC(NC(=O)N(O)C1CCN(C)CC1)c1ccc(-c2cncc(C#N)c2)c(Cl)c1Cl (centres unmarked) [Compound H0667]
[2] COC(=O)c1cncc(-c2ccc(C(C)NC(=O)N(C)C3CCN(C)CC3)c(Cl)c2Cl)n1 (centres unmarked) [Compound H0789]
[3] CC(NC(=O)N(C)C1CCN(C)C1)c1ccc(-c2ccsc2)c(Cl)c1Cl (centres unmarked) [Compound H0531]
Let's sort these by EC50, smallest first. Go ahead? Answer by writing out the labels in the requested order.
1, 3, 2
(1: 3 nM, 3: 5 nM, 2: 26 nM)

[I] CC(NC(=O)N(C)C1CCN(C)CC1)c1ccc(C#CC2CC2)c(Cl)c1Cl (single isomer, unassigned) [Compound H0818]
[II] CC(NC(=O)N(C)C1CCN(C)CC1)c1ccc(C#CC2CC2)c(Cl)c1Cl (single isomer, unassigned) [Compound H0819]
Of I and II , whose reported EC50 is the larger number? Your answer should be the label of the entry you select.
II
(II: 140 nM, I: 3.5 nM)

---

target: GHSR1a (Homo sapiens, UniProt Q92847); construct: expressed in transfected cells; host or cells: HEK293; experiment: Calcium FLIPR assay, GHSR-1a agonism; format: cell-based; design: unit not given here; details: HEK293/GHSR1a cells
experimental.readout: Emax

Worked examples, 5 molecules total:
COc1cncc(-c2ccc(C(C)NC(=O)N(C)C3CCN(C)CC3)c(Cl)c2Cl)c1 (centres unmarked) [Compound H0607] : 3000
CC(NC(=O)N(C)C1CCN(C)CC1)c1ccc(-c2cccnn2)c(Cl)c1Cl (centres unmarked) [Compound H0729] : 2818
CN1CCC(N(O)C(=O)NC(CC2CC2)c2ccc(-c3cnccn3)c(Cl)c2Cl)CC1 (single isomer, unassigned) [Compound H0781] : 4210
CC(NC(=O)N(C)C1CCN(C)CC1)c1ccc(-c2cncc(C(F)(F)F)n2)c(Cl)c1Cl (centres unmarked) [Compound H0910] : 1359
CC(NC(=O)N(C)C1CCN(C)CC1)c1ccc(NC(=O)c2cccs2)c(Cl)c1Cl (centres unmarked) [Compound H0772] : 3569

[1] CC(NC(=O)N(C)C1CCN(C)CC1)c1ccc(-c2cnc(N3CCN(C)CC3)nc2)c(Cl)c1Cl (centres unmarked) [Compound H0799]
[2] CC(NC(=O)N(C)C1CCN(C)CC1)c1ccc(-c2ccc(C=O)s2)c(Cl)c1Cl (centres unmarked) [Compound H0652]
[3] CC(NC(=O)N(C)C1CCN(C)CC1)c1ccc(C2CC2)c(Cl)c1Cl (centres unmarked) [Compound H0494]
# rank_down: sort by Emax, max first Answer by writing out the labels in the requested order.
1, 3, 2

---

biological target: GHSR1a (Homo sapiens); test: Calcium FLIPR assay, GHSR-1a antagonism (reduction of ghrelin response); conditions: HEK293/GHSR1a cells, ghrelin 10 nM
experimental.readout: IC50 (nM)

Worked examples, 2 compounds total:
C#Cc1ccc(C(CC2CC2)NC(=O)N(OC)C2CCN(C)CC2)c(Cl)c1Cl (centres unmarked) : 7
CN1CCC(N(C)C(=O)NC2(c3ccc(-c4cncnc4)c(Cl)c3Cl)CCOCC2)CC1 : 3600

[1] CC(NC(=O)N(C)C1CCN(C)CC1)c1ccc(-c2csc(C3CC3)n2)c(Cl)c1Cl (centres unmarked)
[2] CC(NC(=O)N(C)C1CCN(C)CC1)c1ccc(-c2cncc(N)c2)c(Cl)c1Cl (centres unmarked)
[3] CN1CCC(N(C)C(=O)NC(CC2CC2)c2ccc(-c3cnccn3)c(Cl)c2Cl)CC1 (centres unmarked)
Let's sort these by IC50, smallest first. Go ahead? Answer by writing out the labels in the requested order.
3, 2, 1
(3: 13 nM, 2: 19 nM, 1: 118 nM)

[A] CC(NC(=O)N(C)C1CCN(C)CC1)c1cnc(Cl)c(Cl)c1Cl (centres unmarked)
[B] CC(NC(=O)N(C)C1CCN(C)CC1)c1ccc(-c2cnc(C(=O)N(C)C)cn2)c(Cl)c1Cl (centres unmarked)
Of A and B , whose reported IC50 is the larger number? Your answer should be the label of the entry you select.
A

---

target: GHSR1a (Homo sapiens); assay: Calcium FLIPR assay, GHSR-1a antagonism (reduction of ghrelin response); conditions: HEK293/GHSR1a cells, ghrelin 10 nM
experimental.readout: IC50 (µM)

Worked examples, 3 molecules total:
CC(NC(=O)N(C)C1CCN(C)CC1)c1ccc(C#Cc2ccc(C(N)=O)s2)c(Cl)c1Cl (stereo not shown) : 0.12
CC(NC(=O)N(C)C1CCN(C)CC1)c1ccc(-c2ccc(C=O)s2)c(Cl)c1Cl (stereo not shown) [Compound H0652] : 0.007
CC(NC(=O)N(C)C1CCN(C)CC1)c1ccc(-c2ccncc2)c2ccccc12 (stereo not shown) : 0.49

[1] CCC(NC(=O)N(C)[C@@H]1CCN(C)CC1(C)C)c1ccc(-c2cnccn2)c(Cl)c1Cl (stereo partly shown)
[2] CCN1CCN(c2ncc(-c3ccc(C(C)NC(=O)N(C)C4CCN(C)CC4)c(Cl)c3Cl)cn2)CC1=O (stereo not shown)
[3] C[C@H](NC(=O)N(C)C1CCN(C)C1)c1ccc(C#CC2CC2)c(Cl)c1Cl (stereo partly shown)
[4] CC(NC(=O)N(C)C1CCN(C)CC1)c1ccc(-c2cccc3c2cnn3C)c(Cl)c1Cl (stereo not shown)
# rank_down: sort by IC50, max first Answer by writing out the labels in the requested order.
2, 4, 1, 3
(2: 0.926 µM, 4: 0.495 µM, 1: 0.008 µM, 3: 0.004 µM)

The values you see were collected from patent US9546157B2.
